Test: Multiple-dose PK, SC bolus then continuous 13-day SC infusion, healthy European men
Details: male, human, plasma, sc, 0.1 mg, AUC (0-tlqc) (equal to AUC (0-24)), European men, SC bolus 0.1 mg on Day 1, dosing group 0.3 mg/day, geometric mean (% CV)
Where a SMILES comes first, the peptide text is derived from it. [ ]: non-standard residue; d: D form. Arg(Me) = CNC(=N)NCCC[C@H](N)C(=O)O; Hyp = O=C(O)[C@@H]1C[C@@H](O)CN1; azaGly = NNC(=O)O
quantity: AUC(0-t) (ng·h/mL)
Give just the number in ng·h/mL; leave the unit off.

input: Would you kindly share the measured AUC(0-t) for CC(=O)O.CNC(=N)NCCC[C@H](NC(=O)[C@H](CC(C)C)NC(=O)NNC(=O)[C@H](Cc1ccccc1)NC(=O)[C@@H](NC(=O)[C@H](CC(N)=O)NC(=O)[C@@H]1C[C@@H](O)CN1C(=O)[C@@H](Cc1ccc(O)cc1)NC(C)=O)[C@@H](C)O)C(=O)N[C@@H](Cc1c[nH]c2ccccc12)C(N)=O [API-MA] (Ac-[dY][Hyp]NTF[azaGly]L[Arg(Me)]W-NH2) ?
output: 4.68

From: patent US11013780B2
